Would you mind telling me the reported IC50 of each entry?
target: human P2X3 receptor (Homo sapiens (Human))
Sequence (P56373 whole entry): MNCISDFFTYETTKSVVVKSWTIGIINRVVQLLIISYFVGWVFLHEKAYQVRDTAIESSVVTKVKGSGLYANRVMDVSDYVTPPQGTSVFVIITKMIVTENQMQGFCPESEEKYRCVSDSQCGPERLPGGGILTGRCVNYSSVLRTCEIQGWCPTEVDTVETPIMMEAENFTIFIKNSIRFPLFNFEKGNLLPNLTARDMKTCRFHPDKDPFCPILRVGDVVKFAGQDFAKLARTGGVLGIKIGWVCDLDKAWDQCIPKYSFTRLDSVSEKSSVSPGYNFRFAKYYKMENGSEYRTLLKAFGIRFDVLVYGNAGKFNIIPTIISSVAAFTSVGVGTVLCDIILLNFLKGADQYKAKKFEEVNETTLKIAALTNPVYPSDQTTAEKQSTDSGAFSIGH
test.summary: P2X3 receptor inhibition, ATP-evoked Fluo-3 calcium fluorescence (FDSS 3000)
settings: C6BU-1 cell transfected with human P2X3 receptor gene; ATP-evoked Fluo-3 fluorescence
One number for each entry, in nM.

* CCCC(CCC)C1C(C(=O)c2ccc(CO)cc2)=C(O)C(=O)N1c1ccc(-c2ccon2)cc1 (centres unmarked) [Compound I-006] | 27
* COc1ccccc1C1c2c(C(C)(C)C)n[nH]c2C(=O)N1c1ccc(SC(F)(F)F)cc1 (centres unmarked) [II-004] | 378
* COCCOc1ccccc1C1C(C(=O)CC(C)C)=C(O)C(=O)N1c1ccc(-c2ccc(C)o2)cc1 (centres unmarked) [Compound I-381] | 7

Items follow; give IC50 for each.
1. COc1ccccc1C1c2c(CO)n[nH]c2C(=O)N1c1ccc(-c2ccsc2)cc1 (centres unmarked) [II-182]
2. COc1ccc(C(=O)C2=C(O)C(=O)N(c3ccc4[nH]ccc4c3)C2C2CCCCC2)cc1 (centres unmarked) [Compound I-012]
3. COCc1ccccc1C1C(C(=O)C(C)C)=C(O)C(=O)N1c1ccc(-c2ccccc2)s1 (centres unmarked) [Compound I-283]
4. CC(C)C(=O)C1=C(O)C(=O)N(c2ccc(-c3ccon3)cc2)C1c1ccccc1OCC1CC1 (centres unmarked) [Compound I-588]
5. CC(C)C(=O)C1=C(O)C(=O)N(c2ccc(-c3ccon3)cc2)C1c1ccccc1OCC1CCOCC1 (centres unmarked) [Compound I-590]

1. 60
2. 340
3. 144
4. 29
5. 28
